METHOD: Aggregate analysis by widefield fluorescence microscopy
Type: physicochemical
SETTINGS: Fig S8 panels A, C
OUTCOME MEASURE: log Median Area in 3 * ( (1330 µm *1330 µm))

[
  {
    "SUBSTANCE": "CKIKIQI [MG3b]",
    "TEST VALUE": 1.2169
  },
  {
    "SUBSTANCE": "CHLHLQL [CN9]",
    "TEST VALUE": 1.553
  },
  {
    "SUBSTANCE": "CSISIQI [TM141]",
    "TEST VALUE": 1.276
  },
  {
    "SUBSTANCE": "QCKIKIQINMWQ [EF-C opt]",
    "TEST VALUE": 1.078
  },
  {
    "SUBSTANCE": "CKFKFQF [BL4]",
    "TEST VALUE": 1.345
  },
  {
    "SUBSTANCE": "HHHHKIKIKIKIYYYY [TM6]",
    "TEST VALUE": 1.295
  },
  {
    "SUBSTANCE": "CKAKAQANMWQ [BL8]",
    "TEST VALUE": 2.681
  },
  {
    "SUBSTANCE": "CKFKFQFW [TM72]",
    "TEST VALUE": 1.222
  },
  {
    "SUBSTANCE": "KIKQIIN [JGA3]",
    "TEST VALUE": 1.196
  },
  {
    "SUBSTANCE": "CKFKFQFNM [BL3]",
    "TEST VALUE": 1.063
  },
  {
    "SUBSTANCE": "CKFKQFFNM [CK14]",
    "TEST VALUE": 1.182
  },
  {
    "SUBSTANCE": "QCKIKQIINMWQ [reference compound]",
    "TEST VALUE": 1.445
  },
  {
    "SUBSTANCE": "KFKFQFNMWQ [JG4]",
    "TEST VALUE": 1.411
  },
  {
    "SUBSTANCE": "KIKIQIC [TM112 / CN11]",
    "TEST VALUE": 1.1125
  },
  {
    "SUBSTANCE": "KWKWQW [KB3]",
    "TEST VALUE": 1.617
  },
  {
    "SUBSTANCE": "CKIKQII [MG4a]",
    "TEST VALUE": 1.562
  },
  {
    "SUBSTANCE": "CQFQFQF [QBL4]",
    "TEST VALUE": 1.178
  }
]
